Target: UniProt P56373
Sequence (P56373 1-397): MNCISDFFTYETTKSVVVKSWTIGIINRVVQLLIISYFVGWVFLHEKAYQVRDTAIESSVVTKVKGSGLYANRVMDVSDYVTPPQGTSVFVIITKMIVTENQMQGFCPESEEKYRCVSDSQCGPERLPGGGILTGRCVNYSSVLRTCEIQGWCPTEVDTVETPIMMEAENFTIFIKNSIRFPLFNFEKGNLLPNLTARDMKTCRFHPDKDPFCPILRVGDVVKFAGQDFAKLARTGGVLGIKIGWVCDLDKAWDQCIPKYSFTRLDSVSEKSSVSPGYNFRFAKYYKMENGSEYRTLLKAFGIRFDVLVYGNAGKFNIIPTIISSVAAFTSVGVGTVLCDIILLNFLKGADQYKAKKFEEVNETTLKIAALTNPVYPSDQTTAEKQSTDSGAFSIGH
Assay: cell-based
IC50 strictly under 200 nM means rule met; at 200 nM or over means rule not met.

These solved cases illustrate the format of a correct answer.
Here's an entry: "C[C@@H](NC(=O)N1C[C@H](N2CCOCC2=O)C(c2ccc(F)cc2)=N1)c1ccc(C(F)(F)F)nc1" . Is its IC50 below 200 nM?
rule not met

Here's an entry: "COc1ccc([C@@H](C)NC(=O)N2C[C@H](N3CCCC3=O)C(c3ccc(C)cc3)=N2)nc1" . Is its IC50 below 200 nM?
rule not met

Here's an entry: C[C@@H](NC(=O)N1C[C@@H](N2CCOCC2=O)C(c2ccc(F)cc2)=N1)c1cnc(C(F)(F)F)nc1 [Compound 33a] . Is its IC50 below 200 nM?
rule not met

Here's an entry: "COC(=O)N(C)[C@H]1CN(C(=O)N[C@H](C)c2ccc(C(F)(F)F)nc2)N=C1c1ccc(OC)cc1" . Is its IC50 below 200 nM?
rule met

Here's an entry: "C[C@@H](NC(=O)N1C[C@H](N2CCOCC2=O)C(c2ccc(F)cc2)=N1)c1cnc(C(F)(F)F)nc1" . Is its IC50 below 200 nM?
rule not met

More entries:
Here's an entry: COc1ccc([C@@H](C)NC(=O)N2C[C@@H](N3CCOC3=O)C(c3ccc(Cl)cc3)=N2)nn1 [Compound 29a] . Is its IC50 below 200 nM?
rule met

Here's an entry: "CC(=O)N(C)[C@H]1CN(C(=O)N[C@H](C)c2ccc(C(F)(F)F)nc2)N=C1c1ccc(C)cc1" . Is its IC50 below 200 nM?
rule met

###

The molecules listed here are annotated with their pIC50.
Target: human P2X3 (Homo sapiens, UniProt P56373)
Assay: cell-based
pIC50 here: minus log base 10 of the concentration, concentration in moles per litre.

Below are worked cases with known answers.
Provide human P2X3 (Homo sapiens, UniProt P56373) pIC50 reading for "Cc1ccc(C2=NN(C(=O)N[C@H](C)c3cnc(C(F)(F)F)nc3)C[C@@H]2N2CCOCC2)cc1" .
5.21

Provide human P2X3 (Homo sapiens, UniProt P56373) pIC50 reading for "CC(=O)N(C)[C@H]1CN(C(=O)N[C@H](C)c2cnc(C(F)(F)F)nc2)N=C1c1ccc(C)cc1" .
6.77

Provide human P2X3 (Homo sapiens, UniProt P56373) pIC50 reading for "CC(=O)N(C)[C@@H]1CN(C(=O)N[C@H](C)c2ccc(C(F)(F)F)cc2)N=C1c1ccc(C)cc1" .
6.45

More entries:
Provide human P2X3 (Homo sapiens, UniProt P56373) pIC50 reading for CC(=O)N(C)[C@@H]1CN(C(=O)N[C@H](C)c2cnc(C(F)(F)F)nc2)N=C1c1ccc(C)cc1 [Compound 34a] .
6.64

###

Assay: Liver microsomal enzyme stability test
Type: in vitro ADME
Conditions: Human liver microsomes 0.5 mg/mL, 1 μM compound, 1 mM NADPH, 37° C.; read-out: t1/2 (=0.693/k, min)
The molecules listed here are annotated with their half-life at 1 μM.
Give a bare numeral; the unit min is implied.

Please indicate half-life at 1 μM recorded for "Cc1ccc(C2=NN(C(=O)N[C@H](C)c3ccc(C(F)(F)F)nc3)C[C@@H]2N2CCOC2=O)cc1"
64.8

More entries:
Please indicate half-life at 1 μM recorded for "CCOC(=O)N(C)[C@H]1CN(C(=O)N[C@H](C)c2cnc(C(F)(F)F)nc2)N=C1c1ccc(C)cc1"
364

###

Biological target: UniProt P56373
Test: cell-based
The compounds listed here are annotated with their pIC50.
pIC50 here: minus log base 10 of the concentration, concentration in moles per litre.

Below are worked cases with known answers.
Please indicate pIC50 recorded for COC(=O)N(C)[C@@H]1CN(C(=O)N[C@H](C)c2ccc(C(F)(F)F)nc2)N=C1c1ccc(OC)cc1 [Compound 16a]
7.06

Please indicate pIC50 recorded for "Cc1ccc(C2=NN(C(=O)N[C@H](C)c3cnc(C(F)(F)F)nc3)C[C@@H]2N2CCN(C)CC2)cc1"
5.57

More entries:
Please indicate pIC50 recorded for "Cc1cnc([C@@H](C)NC(=O)N2C[C@H](N3CCCC3=O)C(c3ccc(F)cc3)=N2)cn1"
6.66

Please indicate pIC50 recorded for COc1ccc(C2=NN(C(=O)N[C@H](C)c3cnc(C(F)(F)F)nc3)C[C@H]2N2CCOCC2=O)cc1 [Compound 36a]
6.37

Please indicate pIC50 recorded for Cc1ccc(C2=NN(C(=O)N[C@H](C)c3cnc(C(F)(F)F)cn3)C[C@H]2N2CCOCC2=O)cc1 [Compound 26a]
6.48

Please indicate pIC50 recorded for "CC(=O)N1CCN([C@H]2CN(C(=O)N[C@H](C)c3ccc(C(F)(F)F)nc3)N=C2c2ccc(C)cc2)C1=O"
6.76

Please indicate pIC50 recorded for C[C@@H](NC(=O)N1C[C@@H](N2CCOCC2=O)C(c2ccc(Cl)cc2)=N1)c1cnc(C(F)(F)F)nc1 [Compound 35a]
6.35

###

Biological target: human P2X3 (Homo sapiens)
Test: cell-based
MEASUREMENT_KIND: IC50
Returns: string containing the number followed by the unit.

Please indicate IC50 recorded for C[C@@H](NC(=O)N1C[C@@H](N2CCOCC2=O)C(c2ccc(F)cc2)=N1)c1ccc(C(F)(F)F)nc1 [Compound 24a]
145 nM

Please indicate IC50 recorded for Cc1ccc(C2=NN(C(=O)N[C@H](C)c3ccc(C(F)(F)F)nc3)C[C@H]2N2CCCC2=O)cc1 [Compound 21a]
85 nM

Please indicate IC50 recorded for "Cc1ccc(C2=NN(C(=O)N[C@H](C)c3ccc(C(F)(F)F)nc3)C[C@@H]2N2CCCC2=O)cc1"
129 nM
